# assayed system: Adenosine deaminase (Bos taurus, UniProt P56658)
# Sequence (P56658 whole entry): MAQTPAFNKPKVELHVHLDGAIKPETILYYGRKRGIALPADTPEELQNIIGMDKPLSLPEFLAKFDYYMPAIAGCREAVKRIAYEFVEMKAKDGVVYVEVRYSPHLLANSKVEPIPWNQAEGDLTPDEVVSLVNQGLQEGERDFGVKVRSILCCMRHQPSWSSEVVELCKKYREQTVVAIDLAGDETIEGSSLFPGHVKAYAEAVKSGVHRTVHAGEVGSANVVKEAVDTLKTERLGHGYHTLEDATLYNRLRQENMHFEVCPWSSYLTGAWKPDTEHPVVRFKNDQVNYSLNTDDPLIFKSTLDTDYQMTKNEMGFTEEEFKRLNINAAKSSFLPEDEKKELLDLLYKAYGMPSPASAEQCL
We begin with a simple list: items and their reported pKi.
On this scale, pKi is minus log10 of a concentration expressed in M (mol/L).

1) CCCCCC[C@H]([C@H](C)O)n1cnc2c(N)ncnc21 [(+)-EHNA] : 9.09
2) CCCCCC[C@H]([C@H](C)O)[N+]1([O-])C(=O)Nc2c(N)ncnc21 (some centres undefined) : 7.80
3) CCCCCC[C@H]([C@H](C)O)n1c(O)nc2c(N)ncnc21 : 8.19

Now let's try a different one.
Challenge: Note down pKi recorded for CCCCCC[C@H]([C@H](C)O)[N+]1([O-])C=Nc2c(N)ncnc21 (some centres undefined)
Response given: 8.42
